Test system: HT-1080 cells
Experiment: HT-1080 cell viability assay (ferroptosis induced by RSL3, Cell Titer-Glo)
Type: cell-based
Details: Homo sapiens, HT-1080, 20 h, ferroptosis inducer RSL3, 20 hours, ferroptosis inhibitory activity, Table 2
reportedProperty: EC50

// solved cases for EC50 follow
Cc1nc(N2CCC(N3C[C@@H](C)O[C@@H](C)C3)CC2)ccc1NC1CC2(CC(N)C2)C1 (stereo partly drawn) [Compound 537]: 100 to 1000 nM
CC(C)(C)c1ccc(NC2C3CC4CC2CC(CN)(C4)C3)cc1 (stereo not drawn) [Compound 98]: 0.1 to 100 nM
O=C1CC(C(=O)NC2CC3(C2)CC(Nc2ccc(N4CCC(C(F)(F)F)CC4)cc2)C3)CN1 (stereo not drawn) [Compound 375]: 0.1 to 100 nM
Cc1nc(N2CCC(C)(C)CC2)ccc1NC1CCC(CN)CC1 (stereo not drawn) [Compound 32A]: 0.1 to 100 nM
Cc1cc(NC[C@H]2CC[C@H](N)CC2)cc(C)c1N1CC(C)OC(C)C1 (stereo partly drawn) [Compound 451]: 0.1 to 100 nM

Exercise: So what's the measured EC50 for this one? CC(C)C1CCN(c2ncc(NC[C@H]3C[C@H](N)C3)cn2)CC1 [Compound 448]
Solution: 0.1 to 100 nM

Exercise: Which measured EC50 value corresponds to CC1(C)CCC(c2ccc(NC3CCC(CN)CC3)cc2)CC1 (stereo not drawn) [Compound 78] ?
Solution: 0.1 to 100 nM

Exercise: Name the recorded EC50 for CCc1ccc(NC2CCC(N)CC2)cn1 (stereo not drawn) [Compound 208] .
Solution: 1000 to 10000 nM

Exercise: I am curious: what EC50 value has been reported for CCC(C)(C)c1ccc(NC2CC3(CC(N)C3)C2)cc1 (stereo not drawn) [Compound 369] ?
Solution: 0.1 to 100 nM
